Target: T1, biotinylated recombinant mouse IL-12Rβ2 (mouse, UniProt P97378 24-637, random biotinylated)
T1 construct: Recombinant protein produced in-house; also called mIL-12RB2; mouse IL-12RB2
T1 sequence: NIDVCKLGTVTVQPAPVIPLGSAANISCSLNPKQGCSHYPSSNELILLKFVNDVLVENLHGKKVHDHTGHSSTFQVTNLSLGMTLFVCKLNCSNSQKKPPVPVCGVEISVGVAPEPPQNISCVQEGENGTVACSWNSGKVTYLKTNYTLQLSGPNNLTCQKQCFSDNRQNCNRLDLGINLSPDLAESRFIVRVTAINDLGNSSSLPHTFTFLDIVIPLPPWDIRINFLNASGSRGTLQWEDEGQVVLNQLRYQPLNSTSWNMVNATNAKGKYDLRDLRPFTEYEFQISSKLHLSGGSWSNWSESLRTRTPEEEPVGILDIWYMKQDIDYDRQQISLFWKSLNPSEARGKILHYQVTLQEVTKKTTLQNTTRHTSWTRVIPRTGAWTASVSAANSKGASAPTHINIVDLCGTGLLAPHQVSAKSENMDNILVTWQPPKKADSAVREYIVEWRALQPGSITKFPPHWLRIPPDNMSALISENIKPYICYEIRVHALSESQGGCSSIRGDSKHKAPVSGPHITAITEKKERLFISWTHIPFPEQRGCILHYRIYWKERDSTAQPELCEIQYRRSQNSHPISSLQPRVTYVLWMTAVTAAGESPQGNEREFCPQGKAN
Test: ELISA, P.E., biotinylated antigen

- BINDER: "anti-IL-12Rβ2 VHH clone 3CRHS2 (clone ID 20413) (VHH, not shown: small tags and cut ends, periplasmic extract) VHH: QVQLQESGGGLVQLGGSLTLSCAASGSAALIFLMSWYRQAPGKQRELVAEVSRYGSTTYADSVEGRFTISRDNAKNIVDLQMNSLKPEDTAVYYCKADQYYGDSLRSSWGRGTQVTVSS"
  ELISA mIL-12RB2/control: 1.01
- BINDER: "anti-IL-12Rβ2 VHH clone 2CAH27 (clone ID 20354) (VHH, not shown: small tags and cut ends, periplasmic extract) VHH: QVQLQESGGGSVQSGGSLRLSCVASGRTFSSYAMGWFRQGPGKEREFVAAISWSGVSIYYADSVKGRFTISRDNAKNTVYLQMNSLEPEDTAVYYCAGTEGAYTVAGGSTFGYDMDYWGKGTQVTVSS"
  ELISA mIL-12RB2/control: 1.05
- BINDER: "anti-IL-12Rβ2 VHH clone 3CRH64 (clone ID 20386) (VHH, not shown: small tags and cut ends, periplasmic extract) VHH: QVQLQESGGGLVQAGGSLRLSCTASGHTFSRYTTIGWFRQAPGKDREFVAAIRWSGDITDYADAVKGRFTISRDNVKNTVYLQTNSLNPEDTAVYYCARGYSEYGVLSRNRGLYAYWGQGTQVTVSS"
  ELISA mIL-12RB2/control: 1.41
- BINDER: "anti-IL-12Rβ2 VHH clone 3CAHS142 (clone ID 20401) (VHH, not shown: small tags and cut ends, periplasmic extract) VHH: QVQLQESGGGLVQAGESLTLSCIASGVIKDYAMGWFRQAPGKEREFVAAISWSGVSIYYADSVKGRFTISRDNAKNTVYLQMNSLEPEDTAVYYCAGTEGAYTVAGGSTFGYDMDYWGKGTQVTVSS"
  ELISA mIL-12RB2/control: 1.07

The reported numbers originate from patent US20260209362A1.
